Readings of EC50 for the listed compounds
target: Glycogen synthase kinase-3 (Homo sapiens, UniProt P49840+P49841); experiment: Stimulation of glycogen synthesis in rat skeletal muscle L6 cells
Provide the reading as a plain figure in nM.

These recorded examples may help you get a feel for the data.
C(=N\Nc1ncnc2c1cnn2-c1cccc2[nH]cnc12)/c1ccncc1 | 110
COc1cccc(-n2ncc3c(N/N=C/c4ccncc4)ncnc32)c1 [GW784752X] | 220
CN(C)CCNC(=O)c1ccc(/C=N/Nc2ncnc3c2cnn3-c2cccc3[nH]cnc23)cc1 | 2330
Fc1ccc(/C=N/Nc2ncnc3c2cnn3-c2cccc3[nH]cnc23)cc1 | 230
COc1cccc(-n2ncc3c(N/N=C/c4ccc(C(=O)O)cc4)ncnc32)c1 | 1880
O=C(O)c1ccc(/C=N/Nc2ncnc3c2cnn3-c2cccc3[nH]cnc23)cc1 | 2730
COc1cccc(-n2ncc3c(N/N=C/c4ccc(S(C)(=O)=O)cc4)ncnc32)c1 | 310
COc1cccc(-n2ncc3c(N/N=C/c4ccc(C(=O)NCCN(C)C)cc4)ncnc32)c1 | 4000
C(=N\Nc1ncnc2c1cnn2-c1ccccc1)/c1ccncc1 | 1220

Now for the compound whose EC50 we want.
Q: Fill in the blank: the reported EC50 of CS(=O)(=O)c1ccc(/C=N/Nc2ncnc3c2cnn3-c2cccc3[nH]cnc23)cc1 is ____.
Ans: 240
